- System: Rattus norvegicus
- EXPERIMENT: Effective dose was measured in rats using subcutaneous pentylenetetrazole seizure test
- Type: functional
- PROTOCOL_CONDITIONS: sc
Please assign no whenever ED50 is at or above 100 mg/kg, and yes whenever it is below.

smiles_repr=S=C(/N=c1\snc(Nc2cccc(Cl)c2)n1-c1cccc(Cl)c1)Nc1ccc(Cl)cc1 discrete_label=yes
smiles_repr=COc1ccc(Nc2ns/c(=N\C(S)=N\c3ccc(Cl)cc3)n2-c2ccc(OC)cc2)cc1 discrete_label=no
smiles_repr=S=C(/N=c1\snc(Nc2ccccc2Cl)n1-c1ccccc1Cl)Nc1ccc(Cl)cc1 discrete_label=yes
smiles_repr=S=C(/N=c1\snc(Nc2ccc(Cl)cc2)n1-c1ccc(Cl)cc1)Nc1ccc(Cl)cc1 discrete_label=yes

* * *

- EXPERIMENT: Acute toxicity was measured in rats using maximal electroshock seizure test
- PROTOCOL_CONDITIONS: rat, in vivo
Consider the following compounds and their measured LD50 readings.
PARAMETER: LD50 (mg/kg)

compound=S=C(/N=c1\snc(Nc2ccccc2)n1-c1ccccc1)Nc1ccc(Cl)cc1 measured_number=250
compound=S=C(/N=c1\snc(Nc2ccc(Cl)cc2)n1-c1ccc(Cl)cc1)Nc1ccc(Cl)cc1 measured_number=117
compound=COc1ccc(Nc2ns/c(=N\C(S)=N\c3ccc(Cl)cc3)n2-c2ccc(OC)cc2)cc1 measured_number=210
compound="O=C1NC(=O)C(c2ccccc2)(c2ccccc2)N1 [PHENYTOIN]" measured_number=65.5
compound=S=C(/N=c1\snc(Nc2ccccc2Cl)n1-c1ccccc1Cl)Nc1ccc(Cl)cc1 measured_number=175
compound=S=C(/N=c1\snc(Nc2cccc(Cl)c2)n1-c1cccc(Cl)c1)Nc1ccc(Cl)cc1 measured_number=120
compound=Cc1ccc(Nc2ns/c(=N\C(S)=N\c3ccc(Cl)cc3)n2-c2ccc(C)cc2)cc1 measured_number=300

* * *

- EXPERIMENT: Tested for therapeutic index of compound (LD50/MES ED50)
- PROTOCOL_CONDITIONS: rat; read-out: TI
PARAMETER: selectivity ratio

smiles_repr=S=C(/N=c1\snc(Nc2ccccc2Cl)n1-c1ccccc1Cl)Nc1ccc(Cl)cc1 measured_number=14.6
smiles_repr=S=C(/N=c1\snc(Nc2ccccc2)n1-c1ccccc1)Nc1ccc(Cl)cc1 measured_number=3.26
smiles_repr=S=C(/N=c1\snc(Nc2cccc(Cl)c2)n1-c1cccc(Cl)c1)Nc1ccc(Cl)cc1 measured_number=6.85
smiles_repr=S=C(/N=c1\snc(Nc2ccc(Cl)cc2)n1-c1ccc(Cl)cc1)Nc1ccc(Cl)cc1 measured_number=11.7
smiles_repr=COc1ccc(Nc2ns/c(=N\C(S)=N\c3ccc(Cl)cc3)n2-c2ccc(OC)cc2)cc1 measured_number=10.3
smiles_repr=Cc1ccc(Nc2ns/c(=N\C(S)=N\c3ccc(Cl)cc3)n2-c2ccc(C)cc2)cc1 measured_number=6.42

* * *

- Species on record: Rattus norvegicus
- EXPERIMENT: The activity was measured by using barbiturate hypnosis potentiation effect test
- Format: functional
PARAMETER: Hypnosis potentiation (%)

compound=S=C(/N=c1\snc(Nc2cccc(Cl)c2)n1-c1cccc(Cl)c1)Nc1ccc(Cl)cc1 measured_number=5.97
compound=S=C(/N=c1\snc(Nc2ccccc2Cl)n1-c1ccccc1Cl)Nc1ccc(Cl)cc1 measured_number=20.58
compound=S=C(/N=c1\snc(Nc2ccccc2)n1-c1ccccc1)Nc1ccc(Cl)cc1 measured_number=4.98
compound=Cc1ccc(Nc2ns/c(=N\C(S)=N\c3ccc(Cl)cc3)n2-c2ccc(C)cc2)cc1 measured_number=15.63
compound=S=C(/N=c1\snc(Nc2ccc(Cl)cc2)n1-c1ccc(Cl)cc1)Nc1ccc(Cl)cc1 measured_number=11.58
compound=COc1ccc(Nc2ns/c(=N\C(S)=N\c3ccc(Cl)cc3)n2-c2ccc(OC)cc2)cc1 measured_number=3.14
compound="O=C1NC(=O)C(c2ccccc2)(c2ccccc2)N1 [PHENYTOIN]" measured_number=54.02

Numbers sourced from ChEMBL document CHEMBL1127205.
